- protocol notes: Pharmacokinetic profile in mice after I.V. injection (LC-MS/MS of plasma, brain, liver, kidney)
- Assay type: in vivo, mouse
- details: male, C57BL/6, mouse, iv; kidney, 50 mg/kg I.V.; read-out: Ke (converted)
readout: k el
Write your answer as a measured quantity: the number, then the unit.

Input line: Supply reported k el belonging to this compound: COc1cc(CC(=O)Nc2cc(C3CCC3)[nH]n2)cc(OC)c1OC
Output line: 1.94e-05 s⁻¹

====

- protocol notes: Pharmacokinetic profile in mice after I.V. injection (LC-MS/MS of plasma, brain, liver, kidney)
- Type: in vivo, mouse
- details: male, C57BL/6, mouse, kidney, iv, 200 mg/kg, kidney, 200 mg/kg I.V.; read-out: Cmax
readout: Cmax (ng/g)
Give bare numbers, in ng/g.

Input line: Supply reported Cmax belonging to this compound: COc1cc(CC(=O)Nc2cc(C3CCC3)[nH]n2)cc(OC)c1OC
Output line: 4660
